# credit: the Kinase Knowledgebase extract (Sharma et al. 2016)

Biological target: CDK2 (human)
Test: Cell-Based Assay
Conditions: mcf-7
pIC50: −log10 of the molar value.
Lab note: compare pIC50 against 6. Equal or greater, write y. Smaller, write n.

# SMILES REPRESENTATION, LABEL CLASS
measured = [
    ("NS(=O)(=O)c1ccc(Nc2nccc(-c3cnc4ccccn34)n2)cc1", "y"),
    ("COCCN(C)S(=O)(=O)c1ccc(Nc2nccc(-c3cnc4cccnn34)n2)cc1", "n"),
    ("CN(C)CCCNS(=O)(=O)c1ccc(Nc2nccc(-c3cnc4cccnn34)n2)cc1", "y"),
    ("COCCNS(=O)(=O)c1ccc(Nc2nccc(-c3c(C)nc4cccnn34)n2)cc1", "y"),
    ("COCCNS(=O)(=O)c1ccc(Nc2nccc(-c3cnc4cccnn34)n2)cc1", "y"),
]

Identify whether the reported pIC50 of the following compound is 6 or greater: C[C@@H](Nc1nc(N[C@H]2CC[C@H](N)CC2)nc2c1ncn2C1CCCC1)c1ccccc1
n

###

Biological target: UniProtKB P00533
Details: ovcar-8,sk-ov-3,ovcar-5,ovcar-4
pIC50: −log10 of the molar value.
MEASURED PROPERTY: pIC50

// lookup pIC50 for CNc1cc2ncnc(Nc3cccc(Br)c3)c2cc1N
5.16 to 8.08

###

Biological target: CDK2 (UniProt P24941)
MEASURED PROPERTY: pIC50
Numbers only, as −log10 of the molar value.

Look at this molecule and give its reported pIC50. CC(C)[C@H](CO)Nc1nc(Nc2cccc(Cl)c2)c2ncn(C(C)C)c2n1
7.46

###

Target: MAPK14 (UniProt Q16539)
Test: Inhibition of MAPK14 Kinase Activity
Criterion: IC50 strictly less than 2000 nM. Met: Condition met. Not met: Condition not met.

# MOLECULE, LABEL CLASS
measured = [
    ("CNC(=O)c1cc(Oc2ccc(NC(=O)Nc3ccc(Cl)c(C(F)(F)F)c3)c(F)c2)ccn1", "Condition met"),
    ("CCOc1cc2cnc(NC3CCN(S(C)(=O)=O)CC3)nc2n(C)c1=O", "Condition met"),
    ("CN1CC2CCC1CC2Nc1cc2c(ccc(=O)n2-c2c(Cl)cccc2Cl)c(-c2ccccc2Cl)n1 (stereo unspecified)", "Condition met"),
    ("CS(=O)(=O)N1CCC(Nc2ncc3cc(Oc4ccc(F)cc4F)ccc3n2)CC1", "Condition met"),
    ("CCOc1cc2cnc(NC(CCOC)CCOC)nc2[nH]c1=O", "Condition not met"),
]

Confirm or reject: IC50 of O=c1ncn2nc(Sc3cccc(F)c3)ccc2c1-c1c(Cl)cccc1Cl lies strictly below 2000 nM
Condition met

Report whether reported IC50 is lower than 2000 nM (strictly) for OCC(O)CNc1ncc2cc(Oc3ccc(F)cc3F)ccc2n1 (stereo unspecified)
Condition met

A record lists O=C(c1c[nH]c2ccccc12)N1CCN(Cc2ccccc2)CC1 . Is its IC50 below 2000 nM?
Condition not met

Hi there! Is IC50 for CCOc1ccc2nc(NC(CCO)CCO)ncc2c1 below 2000 nM, do you know?
Condition not met

###

Biological target: PIK3CD (Human) (UniProt O00329)
Sequence (O00329 whole entry, looked up): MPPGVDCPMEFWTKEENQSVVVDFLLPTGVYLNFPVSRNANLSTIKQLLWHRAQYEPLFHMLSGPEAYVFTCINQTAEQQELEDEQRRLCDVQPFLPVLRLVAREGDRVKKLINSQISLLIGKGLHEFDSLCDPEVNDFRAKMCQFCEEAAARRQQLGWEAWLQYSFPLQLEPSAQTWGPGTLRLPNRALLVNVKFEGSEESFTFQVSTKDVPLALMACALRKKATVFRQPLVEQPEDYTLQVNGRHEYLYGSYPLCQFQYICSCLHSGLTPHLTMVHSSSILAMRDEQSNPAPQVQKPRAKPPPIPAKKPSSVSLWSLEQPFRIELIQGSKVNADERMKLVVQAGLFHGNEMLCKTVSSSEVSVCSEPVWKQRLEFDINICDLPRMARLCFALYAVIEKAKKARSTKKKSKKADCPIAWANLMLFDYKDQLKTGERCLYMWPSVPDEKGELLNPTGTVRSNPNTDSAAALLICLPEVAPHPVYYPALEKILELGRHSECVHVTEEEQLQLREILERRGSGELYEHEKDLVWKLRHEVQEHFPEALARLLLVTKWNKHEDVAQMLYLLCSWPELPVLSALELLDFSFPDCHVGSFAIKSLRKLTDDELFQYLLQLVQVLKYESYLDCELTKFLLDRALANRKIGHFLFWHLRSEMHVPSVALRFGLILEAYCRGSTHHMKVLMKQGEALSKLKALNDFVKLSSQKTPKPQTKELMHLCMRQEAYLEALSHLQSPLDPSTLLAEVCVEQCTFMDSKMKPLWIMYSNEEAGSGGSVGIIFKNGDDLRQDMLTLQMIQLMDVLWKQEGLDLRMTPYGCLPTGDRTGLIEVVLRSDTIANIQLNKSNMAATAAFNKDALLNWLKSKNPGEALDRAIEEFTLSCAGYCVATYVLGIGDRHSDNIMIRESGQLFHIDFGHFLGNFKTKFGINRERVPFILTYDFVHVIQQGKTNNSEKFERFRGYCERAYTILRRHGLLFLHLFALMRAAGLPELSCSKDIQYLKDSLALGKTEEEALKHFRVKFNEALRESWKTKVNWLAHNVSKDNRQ
Assay: Cell-Based Assay
Details: raji
pIC50: −log10 of the molar value.
MEASURED PROPERTY: pIC50

Value wanted: pIC50 (PIK3CD (Human) (UniProt O00329)) of entry C[C@H](NC(=O)c1c(N)nn2cccnc12)c1cc2cccc(Cl)c2c(=O)n1CCNS(=O)(=O)C(F)(F)F
7.00 to 8.00

###

Molecular target: CDK2 (human) (UniProt P24941)
Experiment: Enzyme Assay
MEASURED PROPERTY: pIC50
Answers are plain numbers, as −log10 of the molar value.

State the recorded pIC50 for this entry: CN(c1ncccc1CNc1nc(Nc2ccc3c(c2)CC(=O)N3)ncc1C(F)(F)F)S(C)(=O)=O
7.52

###

Could you please report measured pIC50 for the items listed next?
Biological target: MAPK14 (UniProt Q16539)
Assay: Inhibition of MAPK14 Kinase Activity
Numbers only, as −log10 of the molar value.

# COMPOUND, pIC50
data = [
    ("COc1cc2cnc(NC3CCOCC3)nc2n(C)c1=O", 5.80),
    ("CSc1nc(-c2ccnc(NC(C)c3ccccc3)c2)c(-c2ccc(F)cc2)n1C (stereo unspecified)", 4.57),
    ("C[C@@H](C(=O)O)N1CCC(c2cc3c(ccc(=O)n3-c3c(Cl)cccc3Cl)c(-c3ccc(F)cc3Cl)n2)CC1", 8.89),
]

Read the next record carefully.
Could you tell me which pIC50 is on file for CN1CC2CCC1CC2Nc1cc(-c2ccccc2Cl)c2c(c1)N(c1c(Cl)cccc1Cl)C(=O)NC2 (stereo unspecified) ?
9.40

###

Molecular target: UniProt P42336
Sequence (P42336 whole entry, looked up): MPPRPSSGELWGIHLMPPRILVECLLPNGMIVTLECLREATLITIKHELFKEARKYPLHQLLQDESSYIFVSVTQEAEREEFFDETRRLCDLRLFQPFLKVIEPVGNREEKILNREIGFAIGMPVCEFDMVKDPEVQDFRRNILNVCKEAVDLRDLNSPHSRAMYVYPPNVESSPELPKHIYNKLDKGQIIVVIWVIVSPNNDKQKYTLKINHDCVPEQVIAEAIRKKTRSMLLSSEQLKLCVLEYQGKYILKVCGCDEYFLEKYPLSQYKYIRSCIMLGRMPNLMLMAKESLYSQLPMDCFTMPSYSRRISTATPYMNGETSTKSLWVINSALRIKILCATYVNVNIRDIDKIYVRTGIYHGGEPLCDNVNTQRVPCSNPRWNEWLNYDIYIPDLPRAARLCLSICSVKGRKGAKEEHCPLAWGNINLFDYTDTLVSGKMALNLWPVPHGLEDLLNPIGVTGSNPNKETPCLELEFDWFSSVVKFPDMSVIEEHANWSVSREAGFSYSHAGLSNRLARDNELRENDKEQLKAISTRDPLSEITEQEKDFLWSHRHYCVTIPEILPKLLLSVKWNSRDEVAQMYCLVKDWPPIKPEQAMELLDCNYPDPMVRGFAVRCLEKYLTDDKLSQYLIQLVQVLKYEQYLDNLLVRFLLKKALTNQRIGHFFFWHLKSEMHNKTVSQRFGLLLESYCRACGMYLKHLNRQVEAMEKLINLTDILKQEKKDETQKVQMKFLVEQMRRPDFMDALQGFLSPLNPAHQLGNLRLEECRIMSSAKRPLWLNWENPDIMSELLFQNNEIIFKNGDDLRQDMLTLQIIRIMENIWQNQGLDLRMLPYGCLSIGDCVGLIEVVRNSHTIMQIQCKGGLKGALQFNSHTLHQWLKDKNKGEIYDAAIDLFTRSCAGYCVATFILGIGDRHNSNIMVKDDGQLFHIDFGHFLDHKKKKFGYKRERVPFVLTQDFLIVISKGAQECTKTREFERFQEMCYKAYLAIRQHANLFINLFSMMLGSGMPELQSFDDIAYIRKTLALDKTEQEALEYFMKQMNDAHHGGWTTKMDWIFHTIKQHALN
Test: Cellular Inhibition of PIK3CA Kinase in MDA-MB-453 Cells
MEASURED PROPERTY: IC50

Please report the recorded IC50 for CC(C)(Cc1ccccc1C1CCN(S(C)(=O)=O)CC1)Nc1nc(N2CCOCC2)nc(-n2c(C(F)F)nc3ccccc32)n1 .
200 to 500 nM

###

Biological target: MAPK14 (human)
Assay: IL-6 Inhibition
Details: hiv-1
MEASURED PROPERTY: IC50

Report IC50 for Cn1c2ccccc2c2c3c(c4c5ccccc5n(CCC#N)c4c21)CNC3=O please.
< 25 nM

###

The following molecules each carry a recorded pIC50 for EGFR (human) (UniProt P00533).
One number for each entry, as −log10 of the molar value.

Consider the reported pIC50 for these molecules:
# SMILES REPRESENTATION, ENDPOINT VALUE
measured = [
    ("COc1cc2ncnc(Nc3ccc(F)c(Cl)c3)c2cc1O[C@H]1CC[C@H](NC(=O)N2CCOCC2)CC1", 9.52),
    ("COc1cc2ncnc(Nc3ccc(F)c(Cl)c3)c2cc1O[C@H]1CC[C@H](NS(=O)(=O)N2CCOCC2)CC1", 9.40),
    ("CC.COc1cc2ncnc(Nc3ccc(F)c(Cl)c3)c2cc1OC1CCN(S(=O)(=O)N2CCOCC2)CC1", 10.00),
    ("COc1cc2ncnc(Nc3ccc(F)c(Cl)c3)c2cc1O[C@H]1CC[C@H](NS(=O)(=O)N(C)C)CC1", 9.00),
]

Bench note: what pIC50 did COc1cc2ncnc(Nc3ccc(F)c(Cl)c3)c2cc1O[C@H]1CCOC1 show?
9.89

###

Molecular target: PIK3CG (human) (UniProt P48736)
Sequence (P48736 whole entry, looked up): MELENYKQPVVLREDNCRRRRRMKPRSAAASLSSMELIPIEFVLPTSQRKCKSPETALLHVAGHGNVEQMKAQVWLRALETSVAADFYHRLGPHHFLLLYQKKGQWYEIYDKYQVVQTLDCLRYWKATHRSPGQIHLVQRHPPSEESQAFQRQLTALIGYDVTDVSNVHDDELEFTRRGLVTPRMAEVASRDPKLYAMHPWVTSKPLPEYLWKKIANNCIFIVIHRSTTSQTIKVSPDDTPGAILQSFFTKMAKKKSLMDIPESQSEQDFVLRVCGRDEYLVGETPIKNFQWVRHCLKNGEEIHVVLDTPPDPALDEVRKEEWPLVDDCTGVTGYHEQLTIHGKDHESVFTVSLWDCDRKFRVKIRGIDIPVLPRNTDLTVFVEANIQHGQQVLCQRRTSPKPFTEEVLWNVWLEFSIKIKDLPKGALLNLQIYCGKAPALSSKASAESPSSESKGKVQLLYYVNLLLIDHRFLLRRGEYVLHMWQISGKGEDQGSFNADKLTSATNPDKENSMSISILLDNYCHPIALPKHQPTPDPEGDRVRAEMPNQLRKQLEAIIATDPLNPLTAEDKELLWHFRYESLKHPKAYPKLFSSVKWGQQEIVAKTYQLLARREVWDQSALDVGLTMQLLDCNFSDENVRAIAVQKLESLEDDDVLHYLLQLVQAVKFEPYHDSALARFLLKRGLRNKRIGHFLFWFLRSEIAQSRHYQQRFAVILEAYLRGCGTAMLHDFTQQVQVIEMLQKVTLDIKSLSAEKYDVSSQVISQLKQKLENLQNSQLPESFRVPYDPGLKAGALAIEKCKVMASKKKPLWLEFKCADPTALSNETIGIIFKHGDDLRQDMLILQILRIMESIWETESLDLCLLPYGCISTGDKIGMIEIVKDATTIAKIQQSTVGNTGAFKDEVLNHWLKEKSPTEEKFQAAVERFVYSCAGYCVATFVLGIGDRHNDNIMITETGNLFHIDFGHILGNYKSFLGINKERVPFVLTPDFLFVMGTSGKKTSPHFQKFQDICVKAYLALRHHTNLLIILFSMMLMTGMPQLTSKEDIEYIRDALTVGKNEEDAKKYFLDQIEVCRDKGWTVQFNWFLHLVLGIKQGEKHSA
Experiment: Assessment of PIK3CG Kinase Activity
MEASURED PROPERTY: IC50 (nM)
Give bare numbers, in nM.

Some solved entries appear below for comparison.
# SMILES REPRESENTATION, MEASURED PROPERTY, ENDPOINT VALUE
data = [
    ("Cc1nc(Nc2cc(C(=O)O)n(CCc3ccccc3)c2)nc2c1ccc(=O)n2C", "IC50", 148),
    ("COc1cc2sc(C(=O)Nc3nnn[nH]3)c(SCCc3ccccc3)c2cc1OC", "IC50", 522),
    ("COc1ccc2sc(C(=O)Nc3nnn[nH]3)c(Sc3cccc(Cl)c3Cl)c2c1", "IC50", 3450),
    ("Nc1nc2ccc(-c3cncc(NS(=O)(=O)c4cccc5ccccc45)c3)cn2n1", "IC50", 7.94),
    ("O=c1n(Cc2ccccc2)c2nc(-c3cccc(O)c3)nc(C3=CCOCC3)c2n1Cc1ccccc1", "IC50", 1610),
    ("COc1ccc2sc(C(=O)Nc3nnn[nH]3)c(Sc3ccoc3C)c2c1", "IC50", 2210),
    ("COc1cc2c(Sc3cccc(Cl)c3)c(C(=O)Nc3nnn[nH]3)sc2cc1C", "IC50", 170),
    ("O=C(Nc1ccc(-c2nc(N3CCOCC3)nc(N3CCOCC3)n2)cc1)Nc1cccs1", "IC50", 23),
]

--- query ---
Which IC50 is listed for COc1cc2sc(C(=O)Nc3nnn[nH]3)c(SCCc3ccccc3)c2cc1C ?
215

###

Would you kindly list IC50 for each of these compounds?
Biological target: MAPK14 (human) (UniProt Q16539)
Sequence (Q16539 whole entry, looked up): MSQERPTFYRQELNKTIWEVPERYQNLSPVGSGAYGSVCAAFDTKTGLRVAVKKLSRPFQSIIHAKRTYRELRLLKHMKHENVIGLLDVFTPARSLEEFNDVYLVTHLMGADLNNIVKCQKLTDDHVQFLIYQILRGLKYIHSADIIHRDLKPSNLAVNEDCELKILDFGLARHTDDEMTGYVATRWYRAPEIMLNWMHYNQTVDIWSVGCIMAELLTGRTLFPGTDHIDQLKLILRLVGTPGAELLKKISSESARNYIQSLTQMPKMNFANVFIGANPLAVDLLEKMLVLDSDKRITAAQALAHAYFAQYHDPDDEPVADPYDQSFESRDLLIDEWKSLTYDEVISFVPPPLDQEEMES
Test: Assessment of MAPK14 Kinase Activity
Give bare numbers, in nM.

Would you please look over these solved cases?
# COMPOUND, IC50 (nM)
data = [
    ("OC1CCCN(c2[nH]nc(-c3ccc(Cl)cc3)c2-c2ccncc2)C1 (stereo not given)", 190),
    ("Cc1nc(-c2ccccc2)c(-c2ccncc2)o1", 5160),
    ("CC(C)(N)C(=O)OCCOc1cc(-c2ccccc2Cl)c2ccc(=O)n(-c3c(Cl)cccc3Cl)c2c1", 0.12),
    ("[O-][n+]1ccc2c(-c3ccc(F)cc3F)cc(N3CCNCC3)nc2c1-c1c(F)cccc1F", 0.63),
    ("CSc1nc(-c2ccc(F)cc2)c(-c2ccnc(N(C)C)c2)[nH]1", 210),
]

Report IC50 for each item below.
1. Oc1cc(-c2nc(-c3ccccc3)[nH]c2-c2ccncc2)ccc1Cl
2. CSc1nc(-c2ccc(F)cc2)c(-c2ccnc(N(C)Cc3ccccc3)c2)[nH]1
3. CC[C@@H](NC(=O)c1cn2ncnc(Nc3cc(NC(=O)c4cccc(N5CCOCC5)c4)ccc3C)c2c1C)OC

[0.1, 870, 12]

Batch of 4 compounds: report IC50 for each.
1. Clc1ccc(-c2n[nH]c(N3CCN4CCC[C@H]4C3)c2-c2ccncc2)cc1
2. O=C(Nc1ccc(Oc2ccnc(N3CCCC3)n2)c2ccccc12)c1cc(F)cc(N2CCCCC2)c1
3. CSc1nc(-c2ccc(F)cc2)c(-c2ccnc(NC3CCCc4ccccc43)c2)[nH]1 (stereo not given)
4. Fc1ccc(-c2nc(SCc3ccccc3)[nH]c2-c2ccnc(Cl)c2)cc1

62
41.9
50
1900
